Recorded values, source patent EP4806891A1.

# system.tested: HEK-Blue-hTLR7 cells (Homo sapiens, UniProt Q9NYK1)
# Sequence (Q9NYK1 27-1049): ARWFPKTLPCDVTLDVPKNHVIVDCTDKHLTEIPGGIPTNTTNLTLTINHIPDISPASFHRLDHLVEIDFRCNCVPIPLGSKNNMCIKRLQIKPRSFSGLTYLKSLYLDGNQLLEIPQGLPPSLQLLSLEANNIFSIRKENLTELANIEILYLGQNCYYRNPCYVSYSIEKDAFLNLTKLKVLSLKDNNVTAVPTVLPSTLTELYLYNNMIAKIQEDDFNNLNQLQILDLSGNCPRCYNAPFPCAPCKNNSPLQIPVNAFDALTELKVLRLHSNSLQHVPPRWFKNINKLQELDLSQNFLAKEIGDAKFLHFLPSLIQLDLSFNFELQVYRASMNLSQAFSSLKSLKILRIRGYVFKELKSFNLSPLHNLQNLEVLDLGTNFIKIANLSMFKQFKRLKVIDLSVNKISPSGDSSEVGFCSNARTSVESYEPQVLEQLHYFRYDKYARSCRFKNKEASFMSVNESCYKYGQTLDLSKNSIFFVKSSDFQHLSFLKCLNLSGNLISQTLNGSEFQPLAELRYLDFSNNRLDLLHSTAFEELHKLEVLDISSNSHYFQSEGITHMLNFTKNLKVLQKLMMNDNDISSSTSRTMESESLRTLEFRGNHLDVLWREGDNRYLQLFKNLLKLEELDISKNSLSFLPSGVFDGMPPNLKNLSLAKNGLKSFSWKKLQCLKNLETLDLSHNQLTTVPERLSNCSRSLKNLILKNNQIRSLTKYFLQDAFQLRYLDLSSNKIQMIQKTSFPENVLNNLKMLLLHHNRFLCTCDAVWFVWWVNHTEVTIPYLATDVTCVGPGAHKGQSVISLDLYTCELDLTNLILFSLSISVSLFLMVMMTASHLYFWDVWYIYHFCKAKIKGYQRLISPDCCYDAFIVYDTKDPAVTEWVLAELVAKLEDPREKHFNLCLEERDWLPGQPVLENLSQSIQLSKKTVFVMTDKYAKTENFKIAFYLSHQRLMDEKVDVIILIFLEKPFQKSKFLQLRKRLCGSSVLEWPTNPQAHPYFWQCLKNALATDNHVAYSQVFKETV
# protocol.description: HEK-Blue-hTLR7 cell inhibition assay
# run.parameters: R848 0.8 µM, 16 h, OD 620 nm, read-out: TLR7 IC50
The following molecules are listed with their measured IC50 values.

Worked cases, answers included:
molecule	assay.value
CN1CCC(c2nnc([C@]34CN(c5ccc(C#N)c6c5ccc(=O)n6C)C[C@@]3(C(F)(F)F)C4)o2)CC1	> 1 µM
CN1CCC(c2nnc([C@]34CN(c5ccc(C#N)n6ncc(Br)c56)C[C@@]3(C(F)(F)F)C4)o2)CC1	< 1 µM
COc1ccc2c(N3C[C@]4(c5nnc(C6CCN(C)CC6)o5)C[C@]4(C(F)(F)F)C3)ccc(C#N)c2n1	> 1 µM
CN1CCC(c2nnc([C@]34CN(c5ccc(C#N)c6ncccc56)C[C@@]3(C(F)(F)F)C4)o2)C(F)C1 (stereo partly shown)	< 0.1 µM
CN(C)Cc1nnc([C@]23CN(c4ccc(C#N)c5ncccc45)C[C@@]2(C(F)(F)F)C3)o1	< 0.1 µM

Lookup: Note down IC50 recorded for CN1CCC(c2nnc([C@]34CN(c5ccc(C#N)c6ncccc56)C[C@@]3(C(F)(F)F)C4)n2C)CC1
Found: < 1 µM

Lookup: Note down IC50 recorded for CC1(C)CC(Cc2nnc([C@]34CN(c5ccc(C#N)c6ncccc56)C[C@@]3(C(F)(F)F)C4)o2)CC(C)(C)N1
Found: < 0.1 µM

----------
The following compounds are listed with their measured pIC50 values.
# system.tested: HEK-Blue-hTLR7 cells (Homo sapiens, UniProt Q9NYK1)
# Construct: expressed in transfected cells; host or cells: HEK-Blue-hTLR7 cells (HEK293-derived reporter line)
# protocol.description: HEK-Blue-hTLR7 cell inhibition assay
# Type: cell-based
# run.parameters: R848 0.8 µM, 16 h, OD 620 nm, read-out: TLR7 IC50
pIC50: −log10 of the molar value.

Worked cases, answers included:
molecule	system.tested	pIC50
CN1CCC(c2nnc([C@]34CN(c5ccc(OC(F)(F)F)c6ncccc56)C[C@@]3(C(F)(F)F)C4)o2)CC1	HEK-Blue-hTLR7 cells (Homo sapiens, UniProt Q9NYK1)	> 7.00
CN1CCC(n2cnc([C@]34CN(c5ccc(C#N)n6ncc(F)c56)C[C@@]3(C(F)(F)F)C4)n2)CC1	HEK-Blue-hTLR7 cells (Homo sapiens, UniProt Q9NYK1)	> 7.00
CN(C)[C@H]1CC[C@H](c2nnc([C@]34CN(c5ccc(C#N)c6ncccc56)C[C@@]3(C(F)(F)F)C4)o2)CC1	HEK-Blue-hTLR7 cells (Homo sapiens, UniProt Q9NYK1)	> 7.00

Lab note: next compound to report on.
Lookup: Note down pIC50 recorded for N#Cc1ccc(N2C[C@]3(c4nnc(C5CCNCC5)o4)C[C@]3(C(F)(F)F)C2)c2c(F)cnn12
Found: > 7.00

----------
The following molecules are listed with their measured pIC50 values.
# system.tested: HEK-Blue-hTLR8 cells (Homo sapiens)
# Sequence (Q9NR97 27-1041): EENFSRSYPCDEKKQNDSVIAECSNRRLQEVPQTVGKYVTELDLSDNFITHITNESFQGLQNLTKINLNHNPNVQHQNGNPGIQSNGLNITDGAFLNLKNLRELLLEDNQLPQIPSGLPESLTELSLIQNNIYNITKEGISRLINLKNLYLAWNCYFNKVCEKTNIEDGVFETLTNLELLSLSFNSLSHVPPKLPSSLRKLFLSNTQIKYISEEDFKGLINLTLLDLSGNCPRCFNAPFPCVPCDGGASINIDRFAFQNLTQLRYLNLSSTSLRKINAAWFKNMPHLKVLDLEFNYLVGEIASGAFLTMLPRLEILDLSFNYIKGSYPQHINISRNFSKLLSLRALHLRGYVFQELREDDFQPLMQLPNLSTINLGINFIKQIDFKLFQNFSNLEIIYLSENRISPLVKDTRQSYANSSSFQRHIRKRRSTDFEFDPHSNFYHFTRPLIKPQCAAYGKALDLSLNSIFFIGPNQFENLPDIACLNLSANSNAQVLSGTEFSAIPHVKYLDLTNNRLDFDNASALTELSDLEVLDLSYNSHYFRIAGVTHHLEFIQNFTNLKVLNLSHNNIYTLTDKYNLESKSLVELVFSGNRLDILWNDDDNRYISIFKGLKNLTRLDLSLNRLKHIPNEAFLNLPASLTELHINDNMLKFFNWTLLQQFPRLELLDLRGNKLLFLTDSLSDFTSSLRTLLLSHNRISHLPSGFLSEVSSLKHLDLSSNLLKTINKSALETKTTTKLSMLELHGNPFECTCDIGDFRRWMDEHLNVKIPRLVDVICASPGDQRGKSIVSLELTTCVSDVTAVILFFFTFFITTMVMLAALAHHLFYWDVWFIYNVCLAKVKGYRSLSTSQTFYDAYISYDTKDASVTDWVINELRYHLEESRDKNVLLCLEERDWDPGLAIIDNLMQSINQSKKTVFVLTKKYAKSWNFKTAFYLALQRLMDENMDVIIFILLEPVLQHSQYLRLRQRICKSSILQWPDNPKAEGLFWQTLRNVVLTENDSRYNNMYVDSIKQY
# protocol.description: HEK-Blue-hTLR8 cell inhibition assay
# run.parameters: R848 3 µM, 16 h, OD 620 nm, read-out: TLR8 IC50
pIC50: −log10 of the molar value.

Lookup: Note down pIC50 recorded for CN1CC(Cc2nnc([C@]34CN(c5ccc(C#N)c6ncccc56)C[C@@]3(C(F)(F)F)C4)o2)C1
Found: > 7.00

Lookup: Note down pIC50 recorded for CN1CCC(Nc2nnc([C@]34CN(c5ccc(C#N)c6ncccc56)C[C@@]3(C(F)(F)F)C4)o2)CC1
Found: > 7.00

Lookup: Note down pIC50 recorded for CN1CCC(c2nnc([C@]34CN(c5ccc(C#N)c6ncnn56)C[C@@]3(C(F)(F)F)C4)o2)CC1
Found: > 7.00

Lookup: Note down pIC50 recorded for CN1CCC(Oc2nnc([C@]34CN(c5ccc(C#N)c6ncnn56)C[C@@]3(C(F)(F)F)C4)o2)CC1
Found: > 7.00

Lookup: Note down pIC50 recorded for CN1CCC(c2nnc([C@]34CN(c5ccc(C#N)n6ncc(Cl)c56)C[C@@]3(C(F)(F)F)C4)o2)CC1
Found: > 6.00

Lookup: Note down pIC50 recorded for CN(C)[C@H]1CC[C@H](c2nnc([C@]34CN(c5ccc(C#N)c6ncccc56)C[C@@]3(C(F)(F)F)C4)o2)CC1
Found: > 7.00

Lookup: Note down pIC50 recorded for CN1CC2(CC(c3nnc([C@]45CN(c6ccc(C(F)(F)F)c7ncccc67)C[C@@]4(C(F)(F)F)C5)o3)C2)C1
Found: > 7.00

Lookup: Note down pIC50 recorded for FC(F)(F)c1ccc(N2C[C@]3(c4nnc(C5CCNCC5)o4)C[C@]3(C(F)(F)F)C2)c2cccnc12
Found: > 7.00

Lookup: Note down pIC50 recorded for CN1CCC(n2cc([C@]34CN(c5ccc(C#N)c6ncccc56)C[C@@]3(C(F)(F)F)C4)nn2)CC1
Found: > 7.00

Lookup: Note down pIC50 recorded for CN1CCC(C)(c2nnc([C@]34CN(c5ccc(C#N)c6ncccc56)C[C@@]3(C(F)(F)F)C4)o2)CC1
Found: > 7.00

Lookup: Note down pIC50 recorded for N#Cc1ccc(N2C[C@]3(c4nnc(C56CCC(NC(=O)[C@@H]7COCCN7)(CC5)CC6)o4)C[C@]3(C(F)(F)F)C2)c2cccnc12
Found: > 7.00

Lookup: Note down pIC50 recorded for N#Cc1ccc(N2C[C@]3(c4nnc(C5CCNCC5)o4)C[C@]3(C(F)(F)F)C2)c2c(F)cnn12
Found: > 7.00

Lookup: Note down pIC50 recorded for CN1CCC(c2nnc([C@]34CN(c5ccc(F)c6ncccc56)C[C@@]3(C(F)(F)F)C4)o2)CC1
Found: > 7.00

Lookup: Note down pIC50 recorded for N#Cc1ccc(N2C[C@]3(c4nnc(C#CCN5CCOCC5)o4)C[C@]3(C(F)(F)F)C2)c2cccnc12
Found: > 7.00
